Where do the numbers come from? From PubChem BioAssay (NCI).

system: HOP-92 NSCLC; assay: NCI tumour cell line growth inhibition, 48 h
RECORDED METRIC: TGI

compound=O=S(=O)(N1CCCCN(S(=O)(=O)C(F)(F)F)CCCN(S(=O)(=O)C(F)(F)F)CCCN(S(=O)(=O)C(F)(F)F)CCCCN(S(=O)(=O)C(F)(F)F)CCCN(S(=O)(=O)C(F)(F)F)CCC1)C(F)(F)F recorded_metric=TGI measured="> 100 µM"
compound=CCCCCCCCCCCCCCCCCc1nc(C#N)c(N)o1 recorded_metric=TGI measured="> 100 µM"
compound=Cc1c2cccc-2c(N(C)C)cc2c1[nH]c1ccccc12 recorded_metric=TGI measured="3.54 µM"
compound="CC1SC(c2cccc(Oc3ccccc3)c2)N(CCc2cccs2)C1=O (centres undefined)" recorded_metric=TGI measured="1.86 µM"
compound=COc1cc(OC)c(-c2oc3ccccc3c(=O)c2O)c(OC)c1 recorded_metric=TGI measured="> 100 µM"
compound="CCCCCCCCCCCCOC1C(C(COC2OC(C(O)CO)C3OC(C)(C)OC23)OC(=O)Nc2ccc([N+](=O)[O-])cc2)OC2OC(C)(C)OC21 (centres undefined)" recorded_metric=TGI measured="14.7 µM"
compound=O=[N+]([O-])c1ccc(-c2ccc(C3=Nn4c(nnc4-c4ccc(Cl)cc4)SC3)o2)cc1 recorded_metric=TGI measured="> 75.8 µM"
compound=Cc1nn(C(=O)CC(=O)Nc2ccccc2Cl)c(C)c1N=Nc1ccccc1Cl recorded_metric=TGI measured="> 100 µM"
compound=Cc1cccc2ns[s+]c12 recorded_metric=TGI measured="> 100 µM"

---

Recorded TGI, one value per entry.
system: KM12 colon; assay: NCI tumour cell line growth inhibition, 48 h
RECORDED METRIC: TGI (µM)

molecule=CN(C)/C=C/c1ccnc2c1C(=O)c1ccccc1C2=O recorded_metric=TGI endpoint_unit=µM reported_relation=> measured=64.2
molecule=N#Cc1c(-c2ccc(Cl)cc2)n([O-])c2ccccc2[n+]1=O recorded_metric=TGI endpoint_unit=µM reported_relation== measured=28.7
molecule="CCO/C=N/C1=C(C#N)C(c2ccc(OC)c(OC)c2)c2c(-c3ccccc3)nn(-c3ccccc3)c2O1 (stereo not given)" recorded_metric=TGI endpoint_unit=µM reported_relation== measured=22.1
molecule=COc1ccc(N=Nc2ccc3oc(=O)c(C(=O)Nc4ccc(OC)cc4)cc3c2)cc1 recorded_metric=TGI endpoint_unit=µM reported_relation== measured=33.5
molecule="CCN(CC)CC(C(=O)Nc1c(C)cccc1C)/C(C)=N/NC(N)=S (stereo not given)" recorded_metric=TGI endpoint_unit=µM reported_relation=> measured=100

---

system: NCI-H460 lung
Outcomes: True = active, False = inactive

compound=COc1ccc(N2CCN(CC(=O)N3CCN(c4nnc(-c5ccc(Cl)cc5)c(-c5ccc(Cl)cc5)n4)CC3)CC2)cc1 measured_on="NCI-H460 lung" label_class=False
compound="COc1ccc(/C=C2\\CC(C)CC3C2=NN(C(C)=O)C3c2ccc(OC)c(OC)c2)cc1OC (centres undefined)" measured_on="NCI-H460 lung" label_class=False
compound="CCOC(=O)C(Cc1ccc(N(CCCl)CCCl)cc1)NC(=O)C(CC(C)C)NC(C)=O (centres undefined)" measured_on="NCI-H460 lung" label_class=True
compound="CCN(CC)CCCC(C)NC(=S)N/N=C(\\C)c1ccccn1 (centres undefined)" measured_on="NCI-H460 lung" label_class=False
compound="N#CC1=C(N)Oc2c(ccc3ccccc23)C1c1ccccc1Cl (centres undefined)" measured_on="NCI-H460 lung" label_class=True
compound="COc1cc(C2C3=C(COC3=O)N(CCO)c3cc4c(cc32)CCC4)cc(OC)c1OC (centres undefined)" measured_on="NCI-H460 lung" label_class=True
compound="CCOC(=O)c1ccccc1NC(c1ccccc1)c1ccc2cccnc2c1O (centres undefined)" measured_on="NCI-H460 lung" label_class=False
compound=Oc1ccc(-c2nc(-c3ccc4oc5ccc(-c6[nH]c(-c7ccc(O)cc7)nc6-c6ccccc6)cc5c4c3)c(-c3ccccc3)[nH]2)cc1 measured_on="NCI-H460 lung" label_class=False
compound=Nc1cc(N)c2nc(-c3ccccc3)c(Sc3ccc(F)cc3)nc2c1 measured_on="NCI-H460 lung" label_class=False
